- test_protocol: qHTS assay to identify small molecule agonists of the estrogen receptor beta (ER-beta) signaling pathway - cell viability counter screen (AID 1259380); note: nearly all actives have a fitted effect of over 30% in size
- protocol_conditions: ER-beta-bla HEK293T viability, CellTiter-Glo luminescence, 16 h; series mostly up to 92.4 µM
Records with an inconclusive call do not appear. Calls of active or inactive are those of the source. Calls come from the whole dose curve; as a rule, active = well fitted cell-killing curve with a large enough effect in the repeat runs; inconclusive = weak or mixed curves, or effect the other way; inactive = flat fitted curve, though single readings scatter.
Entry note: the call must match one of active, inactive

>>> df
                        structure_as_smiles  group_label
0      C[Si](NC1CCCCC1)(NC1CCCCC1)NC1CCCCC1       active
1        CN(C)CCOC1=Cc2ccccc2Sc2ccc(Cl)cc21       active
2                         O=C(O)c1cccc(O)c1     inactive
3  COc1ccc(CCC(=O)c2c(O)cc(O[C@@H]3O[C@H](CO)[C@@H](O)[C@H](O)[C@H]3O[C@@H]3O[C@@H](C)[C@H](O)[C@@H](O)[C@H]3O)cc2O)cc1O     inactive
4         C[Si]1(C)O[Si](C)(C)O[Si](C)(C)O1     inactive

### Prompt Field: outcome | Entry: `C=CC(C)(C)CC(=O)OC`
### Response active

### Prompt Field: outcome | Entry: `COc1ccc(C(=O)c2cccc(O)c2)c(OC)c1`
### Response inactive

### Prompt Field: outcome | Entry: `O=C(C(=O)c1ccccc1)c1ccccc1`
### Response inactive

Origin of measurements: PubChem BioAssay (Tox21)
